# assayed-system: GLP-1R (Homo sapiens)
# Sequence (P43220 24-463): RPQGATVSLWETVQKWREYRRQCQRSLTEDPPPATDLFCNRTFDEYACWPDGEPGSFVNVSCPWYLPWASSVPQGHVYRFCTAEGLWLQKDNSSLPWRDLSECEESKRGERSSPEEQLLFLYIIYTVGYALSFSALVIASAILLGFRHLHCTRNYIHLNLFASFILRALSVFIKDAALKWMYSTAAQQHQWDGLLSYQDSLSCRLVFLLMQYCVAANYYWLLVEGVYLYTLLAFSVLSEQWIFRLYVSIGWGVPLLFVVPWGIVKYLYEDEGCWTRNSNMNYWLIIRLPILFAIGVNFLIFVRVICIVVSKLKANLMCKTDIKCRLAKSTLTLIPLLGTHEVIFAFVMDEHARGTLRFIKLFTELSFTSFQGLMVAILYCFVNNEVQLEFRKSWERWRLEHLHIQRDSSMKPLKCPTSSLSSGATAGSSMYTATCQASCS
# experiment: GLP-1R activation: cAMP increase in CHO cells stably expressing GLP-1R
# Format: cell-based
# test-parameters: cAMP increase, CHO cells stably expressing GLP-1R, 10 point dose response, 30 minutes incubation; read-out: EC50
recorded-metric: EC50 (nM)
The reply should be a number in nM, with the unit left off.

- COCCn1c(Cc2ccc(-c3cccc(OCc4cccc(C#N)c4)n3)cc2F)nc2ccc(C(=O)O)cc21: 1350
- Cc1cc(Cn2c(Cc3ccc(-c4cccc(OCc5ccc(C#N)cc5F)n4)cc3F)nc3ccc(C(=O)O)cc32)no1: 178

*Q* // query EC50 value for entry N#Cc1cc(F)c(COc2nc(-c3ccc(Cc4nc5ccc(C(=O)O)cc5n4C[C@@H]4CCO4)cc3F)ccc2F)cc1F
*A* 0.52

*Q* // query EC50 value for entry N#Cc1ccc(COc2cccc(-c3ccc(Cc4nc5cc(F)c(C(=O)O)cc5n4C[C@@H]4CCO4)c(F)c3)n2)c(F)c1
*A* 0.86

*Q* // query EC50 value for entry N#Cc1ccc(COc2ccnc(-c3ccc(Cc4nc5ccc(C(=O)O)cc5n4C[C@@H]4CCO4)cc3F)n2)c(F)c1
*A* 0.73

*Q* // query EC50 value for entry N#Cc1ccc(COc2cccc(-c3ccc(Cc4nc5ccc(C(=O)O)cc5n4CC4CCS4(=O)=O)c(F)c3)n2)c(F)c1 (stereo not shown) [Example 17]
*A* 11

*Q* // query EC50 value for entry COCCn1c(Cc2cc(F)c(-c3cccc(OCc4ccc(C#N)cc4F)n3)cc2F)nc2cc(Cl)c(C(=O)O)cc21
*A* 29.3

* * *

# experiment: Microsomal stability, human liver microsomes (predicted hepatic clearance)
# test-parameters: predicted from in vitro microsomal stability data
recorded-metric: Predicted Hepatic Clearance (Pred. Cl.) (mL/min/kg)
The reply should be a number in mL/min/kg, with the unit left off.

- CCn1cncc1Cn1c(Cc2ccc(-c3cccc(OCc4ccc(C#N)cc4F)n3)cc2F)nc2ccc(C(=O)O)cc21: 2

*Q* // query Predicted Hepatic Clearance (Pred. Cl.) value for entry N#Cc1ccc(COc2cccc(-c3ccc(Cc4nc5ccc(C(=O)O)cc5n4C[C@@H]4CCCO4)cc3F)n2)c(F)c1
*A* 6.33

*Q* // query Predicted Hepatic Clearance (Pred. Cl.) value for entry N#Cc1ccc(COc2cccc(-c3cc(F)c(Cc4nc5ccc(C(=O)O)cc5n4CC4COC4)cc3F)n2)c(F)c1
*A* 5.33

*Q* // query Predicted Hepatic Clearance (Pred. Cl.) value for entry COCCn1c(Cc2cc(F)c(-c3cccc(OCc4ccc(-c5ccccn5)cc4F)n3)cc2F)nc2ccc(C(=O)O)cc21
*A* 2.83

* * *

# assayed-system: GLP-1R (Homo sapiens)
# experiment: GLP-1R activation: cAMP increase in CHO cells stably expressing GLP-1R
# Assay type: cell-based
# test-parameters: cAMP increase, CHO cells stably expressing GLP-1R, 10 point dose response, 30 minutes incubation; read-out: EC50
recorded-metric: pEC50
pEC50 field: float, defined as -log10 of concentration (mol/L).

Some solved entries appear below for comparison.
- COCCn1c(Cc2ccc(-c3cccc(OCc4cccc5c4oc4ccccc45)n3)cc2F)nc2ccc(C(=O)O)cc21 [Example 265]: 8.68
- COc1cc(C#N)ccc1COc1nccc(-c2cc(F)c(Cc3nc4ccc(C(=O)O)cc4n3CC3(CF)CC3)cc2F)n1 [Example 430]: 9.17
- COCCn1c(Cc2cc(F)c(-c3cccc(OCc4cc(F)c(C(F)F)cc4F)n3)cc2F)nc2ccc(C(=O)O)cc21 [Example 863]: 8.26
- COCCn1c(Cc2cc(F)c(-c3cccc(OCc4ccc(C)nc4F)n3)cc2F)nc2ccc(C(=O)O)cc21 [Example 822]: 8.46
- COCCC1(Cn2c(Cc3ccc(-c4cccc(OCc5ccc(C#N)cc5F)n4)cc3F)nc3ccc(C(=O)O)cc32)CC1 [Example 291]: 8.97

*Q* // query pEC50 value for entry COCCn1c(Cc2cc(F)c(-c3cccc(OCc4ccc(C#N)cc4OC)n3)cc2F)nc2ccc(C(=O)O)cc21 [Example 436]
*A* 9.36

*Q* // query pEC50 value for entry N#Cc1ccc(COc2cccc(-c3cc(F)c(Cc4nc5ccc(C(=O)O)cc5n4C4CCOCC4)cc3F)n2)c(F)c1 [Example 547]
*A* 8.46

*Q* // query pEC50 value for entry CCn1cnnc1Cn1c(Cc2ccc(-c3cccc(OCc4ccc(C#N)cc4F)n3)cc2F)nc2ccc(C(=O)O)cc21 [Example 404]
*A* 8.77

*Q* // query pEC50 value for entry COCC1(Cn2c(Cc3cc(F)c(-c4cccc(OCc5ccc(C#N)cc5F)n4)cc3F)nc3ccc(C(=O)O)cc32)CCCO1 (centres unmarked) [Example 652]
*A* 8.06

*Q* // query pEC50 value for entry COCCn1c(Cc2ccc(-c3cccc(OCc4ccc(C(F)(F)F)nc4OC)n3)cc2F)nc2ccc(C(=O)O)cc21 [Example 458]
*A* 8.56

*Q* // query pEC50 value for entry COCCn1c(Cc2ccc(-c3cccc(OCc4ccc(Cl)cc4OCC(F)(F)F)n3)cc2F)nc2ccc(C(=O)O)cc21 [Example 267]
*A* 6.77

*Q* // query pEC50 value for entry COc1cc(Cl)ccc1COc1nccc(-c2cc(F)c(Cc3nc4ccc(C(=O)O)cc4n3CC3(CF)CC3)cc2F)n1 [Example 414]
*A* 9.36

*Q* // query pEC50 value for entry COCCn1c(Cc2ccc(-c3conc3OCc3ccc(C#N)cc3F)cc2F)nc2ccc(C(=O)O)cc21 [Example 80]
*A* 5.58

*Q* // query pEC50 value for entry N#Cc1ccc(COc2cccc(-c3cc(F)c(Cc4nc5c(F)cc(C(=O)O)cc5n4C[C@@H]4CCO4)cc3F)n2)cn1 [Example 659]
*A* 9.77

* * *

# assayed-system: GLP-1R (Homo sapiens)
# experiment: GLP-1R activation: cAMP increase in CHO cells stably expressing GLP-1R
# Assay type: cell-based
# test-parameters: cAMP increase, CHO cells stably expressing GLP-1R, 10 point dose response, 30 minutes incubation; read-out: EC50
Output label 1 for records whose EC50 is lower than 4 nM, label 0 for records at or above 4 nM.

*Q* Does this compound meet the criterion EC50 < 4 nM? N#CCC1(Cn2c(Cc3ccc(-c4ccnc(OCc5ccc(C#N)cc5F)n4)c(F)c3)nc3ccc(C(=O)O)nc32)CC1 [Example 300]
*A* label 1

*Q* Does this compound meet the criterion EC50 < 4 nM? N#Cc1ccc(COc2cccc(-c3ccc(Cc4nc5ccc(C(=O)O)cc5n4CC4(CF)CC4)c(C#N)c3)n2)c(F)c1 [Example 286]
*A* label 0

*Q* Does this compound meet the criterion EC50 < 4 nM? CC1(C)COC1Cn1c(Cc2ccc(-c3cccc(OCc4ccc(C#N)cc4F)n3)cc2F)nc2ccc(C(=O)O)cc21 (stereo not shown) [Example 264]
*A* label 0

*Q* Does this compound meet the criterion EC50 < 4 nM? N#Cc1ccc(COc2cccc(-c3ccc(Cc4nc5ccc(C(=O)O)cc5n4Cc4ncco4)c(F)c3)n2)c(F)c1 [Example 371]
*A* label 1

*Q* Does this compound meet the criterion EC50 < 4 nM? N#Cc1ccc(COc2cccc(-c3cc(F)c(Cc4nc5ccc(C(=O)O)cc5n4C[C@@H]4CCO4)cc3F)n2)cn1 [Example 807]
*A* label 1

*Q* Does this compound meet the criterion EC50 < 4 nM? N#Cc1ccc(COc2cccc(-c3ccc(Cc4nc5ccc(C(=O)O)cc5n4Cc4cncn4C4CC4)c(F)c3)n2)c(F)c1 [Example 7]
*A* label 0

*Q* Does this compound meet the criterion EC50 < 4 nM? COCCn1c(Cc2cc(F)c(-c3cccc(OCc4ccc(Cl)c(F)c4F)n3)cc2F)nc2ccc(C(=O)O)cc21 [Example 802]
*A* label 1

* * *

# assayed-system: GLP-1R (Homo sapiens)
# experiment: GLP-1R activation: cAMP increase in CHO cells stably expressing GLP-1R
# Assay type: cell-based
# test-parameters: cAMP increase, CHO cells stably expressing GLP-1R, 10 point dose response, 30 minutes incubation; read-out: EC50
recorded-metric: EC50

• COc1cc(Cl)ccc1COc1cccc(-c2cc(F)c(Cc3nc4ccc(C(=O)O)cc4n3CC3(CC#N)CC3)cc2F)n1 = 0.15 nM
• COCCn1c(Cc2ccc(-c3cccc(OCc4ccc(C#N)cc4F)n3)cc2F)nc2ccc(C3(C(=O)O)CC3)cc21 = ≥ 1000 nM
• COc1cc(C#N)ccc1COc1nccc(-c2ccc(Cc3nc4ccc(C(=O)O)nc4n3CC3(CF)CC3)cc2F)n1 = 0.58 nM
• COC[C@H]1C[C@H](n2c(Cc3cc(F)c(-c4cccc(OCc5ccc(C#N)cc5F)n4)cc3F)nc3ccc(C(=O)O)cc32)C1 = 290 nM
• N#Cc1ccc(COc2ccc(F)c(-c3ccc(Cc4nc5ccc(C(=O)O)cc5n4C[C@@H]4CCO4)cc3)n2)c(F)c1 = 0.97 nM

*Q* Param readout = EC50; param system = GLP-1R (Homo sapiens); param query = N#Cc1ccc(COc2cccc(-c3cc(F)c(Cc4nc5ccc(C(=O)O)cc5n4Cc4ccsn4)cc3F)n2)c(F)c1 ; response: value
*A* 1.94 nM

*Q* Param readout = EC50; param system = GLP-1R (Homo sapiens); param query = COCCn1c(Cc2ccc(-c3cccc(OCc4ccc(C#N)cc4F)n3)cc2-c2cnn(C(F)F)c2)nc2ccc(C(=O)O)cc21 ; response: value
*A* 252 nM
